- Experiment Notes: Ivosidenib plasma PK after a single oral dose (day −3, dose escalation), LC-MS/MS, non-compartmental
- Assay type: in vivo
- Measurement Setup: human, po, 100 mg, glioma, single oral 100 mg, day −3, geometric mean (geometric CV%)
Endpoint Label: Cmax (µg/mL)
Give the number; µg/mL is assumed, so skip it.

Let me know recorded Cmax for N#Cc1ccnc(N2C(=O)CC[C@H]2C(=O)N(c2cncc(F)c2)[C@H](C(=O)NC2CC(F)(F)C2)c2ccccc2Cl)c1 [ivosidenib] , thanks.
1.27

---

- Experiment Notes: Ivosidenib plasma PK after single and multiple 500 mg QD doses (dose expansion)
- Format: in vivo, human
- Measurement Setup: human, plasma, oral, 500 mg, expansion other solid tumors, cycle 1 day 1, geometric mean (geometric CV%), read-out: AUC0-8hr
Endpoint Label: AUC(0-t) (ng·h/mL)
Answer with a number only, understood to be in ng·h/mL.

Specify AUC(0-t) for N#Cc1ccnc(N2C(=O)CC[C@H]2C(=O)N(c2cncc(F)c2)[C@H](C(=O)NC2CC(F)(F)C2)c2ccccc2Cl)c1 [ivosidenib] and stop.
13800
